# Test system: MDA-N
# assay_explanation: NCI tumour cell line growth inhibition, 48 h
Active and inactive are the calls of the source. No stated cut-off is given here; in the data, active = GI50 up to about 1.1 µM and inactive = higher.
Assign a class; possible classes are yes (1) for active, no (0) for inactive

Identify the outcome logged in this assay for the molecule shown: CCC1(O)CC(OC2CC(N(C)C)C(OC3CC(O)C(OC4OC(C)C(=O)C=C4N)C(C)O3)C(C)O2)c2c(O)c3c(c(O)c2C1C(=O)OC)C(=O)c1cccc(O)c1C3=O (stereo unspecified)
yes (1)

Identify the outcome logged in this assay for the molecule shown: CN(C)c1ccc(/C=C(\NC(=O)c2ccccc2)C(=O)Nc2cccc(C(=O)NCCCO)c2)cc1
no (0)

Identify the outcome logged in this assay for the molecule shown: CCSc1cc2c(cc1O)CC[C@@H]1[C@@H]2CC[C@]2(C)[C@@H](O)CC[C@@H]12
no (0)

Identify the outcome logged in this assay for the molecule shown: CN1C(=O)C23CCCCC2CC1(c1ccccc1)S3 (stereo unspecified)
no (0)

Identify the outcome logged in this assay for the molecule shown: CC(C)SC(NC(=O)C1C(C)(C)CCC1(C)C)C(=O)O (stereo unspecified)
no (0)

Identify the outcome logged in this assay for the molecule shown: COc1c2c(c3c(c1OC)c(=O)c1ccccc1n3C)OCO2
no (0)

---

# Test system: SK-MEL-2
# assay_explanation: NCI tumour cell line growth inhibition, 48 h
The source made the active and inactive calls. No stated cut-off is given here; in the data, active = GI50 up to about 1.1 µM and inactive = higher.
endpoint_name: GI50

Value lookup for GI50; key = CCOP(=O)(CN=C(c1ccccc1)c1ccccc1)OCC
> 100 µM (inactive)

Value lookup for GI50; key = CN1C/C(=C\c2ccc(Cl)cc2)C(=O)/C(=C/c2ccc(Cl)cc2)C1
> 88.9 µM (inactive)

Value lookup for GI50; key = COC(=O)C12OCC34C(CC5C(C)C6=CC(=O)OC6=CC5(C)C3C(O)C1O)OC(=O)C(OC(C)=O)C24 (stereo unspecified)
10.1 µM (inactive)

Value lookup for GI50; key = O=C(O)C1CC(O)CN1 (stereo unspecified)
> 100 µM (inactive)

Value lookup for GI50; key = CC(=O)OC1C(COC(=O)c2ccccc2)OC(Nc2ncc(-c3ccc(Br)cc3)s2)C(OC(=O)c2ccccc2)C1OC(=O)c1ccccc1 (stereo unspecified)
14.5 µM (inactive)

Value lookup for GI50; key = N#CCCC(CCC#N)(CCC#N)NO
> 100 µM (inactive)

---

# Tested on: MDA-MB-231
# assay_explanation: NCI tumour cell line growth inhibition, 48 h
Active and inactive are the calls of the source. No stated cut-off is given here; in the data, active = GI50 up to about 1.1 µM and inactive = higher.
A collection of compounds and their measured GI50

Value lookup for GI50; key = COc1ccc2c(c1)C(=O)CC(N)C2 (stereo unspecified)
> 100 µM (inactive)

Value lookup for GI50; key = COC(=O)C1(O)C(c2ccccc2)NC2(C)CCCC21 (stereo unspecified)
> 100 µM (inactive)

Value lookup for GI50; key = CN(C)C(C1=C(O)C(c2ccccc2)N(c2ccccc2)C1=O)N1CCOCC1 (stereo unspecified)
> 10 µM (inactive)

Value lookup for GI50; key = CCC1OC2C(CC=C(C)C)=C3OC(C)(O)C(C)(CC)C(OC(C)=O)C3=C3OC(=O)C=C1C32 (stereo unspecified)
19.8 µM (inactive)

Value lookup for GI50; key = COC(=O)c1ccc([N+](=O)[O-])c(O)c1
> 100 µM (inactive)

Value lookup for GI50; key = CC1=CP(=O)(c2c(C(C)C)cc(C(C)C)cc2C(C)C)CCC1Cl (stereo unspecified)
15.3 µM (inactive)

Value lookup for GI50; key = COc1ccc(/C=N/n2c(-c3ccccc3)n[nH]c2=O)c(OC)c1
51.5 µM (inactive)

Value lookup for GI50; key = COC(=O)c1sc(=S)sc1SCc1ccccc1CSc1sc(=S)sc1C(=O)OC
> 100 µM (inactive)

Value lookup for GI50; key = O=C(c1nsc(Cl)c1Cl)N1CCCCC1
> 100 µM (inactive)

Value lookup for GI50; key = O/N=C/C1c2ccccc2-c2ccccc21
14.6 µM (inactive)

Value lookup for GI50; key = N[C@H](C(=O)O)[C@@H]1CC(Br)=NO1
> 100 µM (inactive)

Value lookup for GI50; key = CCCCCCC1OC23OC1CCC2C(O)CCC3O (stereo unspecified)
> 100 µM (inactive)

Value lookup for GI50; key = COC(=O)[C@]1(C)CCCC2(C)C3=C(CCC21)CC1(CC3)SCCS1 (stereo partly specified)
> 10 µM (inactive)

Value lookup for GI50; key = Cc1cnccc1/N=N/c1ccc(N(C)C)cc1
16.3 µM (inactive)

Value lookup for GI50; key = O=C1c2cc(Cl)ccc2N=C(NCCCl)C2CSCN12 (stereo unspecified)
> 100 µM (inactive)

Value lookup for GI50; key = CCCCC(=C=C1CCCCC1O)C1CCCN1C(=O)OC(C)(C)C (stereo unspecified)
16.1 µM (inactive)

Value lookup for GI50; key = CN(C)CCOc1ccc2c(c1)C/C(=C/c1ncc([N+](=O)[O-])n1C)C2=O
1.91 µM (inactive)

Value lookup for GI50; key = C/C(=N/S(=O)(=O)c1ccc(Cl)c(Cl)c1)OCC(C)(C)C
> 100 µM (inactive)

Value lookup for GI50; key = CN(C)CCCOc1nc2c(c(=O)n(C)c(=O)n2C)n1C.SC1=NC=NC2=NC=NC12
1.69 µM (inactive)

Value lookup for GI50; key = CCOP(=O)(CN=C(c1ccccc1)c1ccccc1)OCC
> 100 µM (inactive)

Value lookup for GI50; key = CCOc1cc(-c2nc3ccccn3c2/N=C/c2cc([N+](=O)[O-])cc([N+](=O)[O-])c2O)ccc1O
> 100 µM (inactive)

Value lookup for GI50; key = c1ccc2c(c1)ccc1cc3cc(NCCCCNc4ccc5nc6c(ccc7ccccc76)cc5c4)ccc3nc12
0.154 µM (active)

Value lookup for GI50; key = CCC1(O)CC(OC2CC(N(C)C)C(OC3CC(O)C(OC4OC(C)C(=O)C=C4N)C(C)O3)C(C)O2)c2c(O)c3c(c(O)c2C1C(=O)OC)C(=O)c1cccc(O)c1C3=O (stereo unspecified)
0.0583 µM (active)

Cited source for all entries: ChEMBL document CHEMBL1201862
